# test-target: DNA repair nuclease/redox regulator APEX1 (Homo sapiens)
# assay-notes: Inhibition of full length human APE1 assessed as reduction in endonuclease activity by measuring DNA cleavage of abasic sites using 6-FAM labelled two annealed oligonucleotides as AP site mimic substrate by fluorescence-based assay
pIC50: −log10 of the molar value.
observable: pIC50

Use the examples below as a reference point.
compound	observable	quantitative-readout
Cc1ccc(S(=O)(=O)n2cccc2[C@@H]2NC(=O)[C@H](Cc3c[nH]c4ccccc34)NC(=O)C[C@@H](Cc3ccc(Cl)cc3)NC(=O)C/C=C/[C@@H]2C)cc1	pIC50	5.72
Cc1ccc(S(=O)(=O)n2cccc2[C@@H]2NC(=O)[C@H](Cc3c[nH]c4ccccc34)NC(=O)CCCOC(=O)C/C=C/[C@@H]2C)cc1	pIC50	4.97
Cc1ccc(S(=O)(=O)n2cccc2[C@@H]2NC(=O)[C@H](Cc3c[nH]c4ccccc34)NC(=O)C[C@@H](c3cccc(C(F)(F)F)c3)NC(=O)C/C=C/[C@@H]2C)cc1	pIC50	4.28
Cc1ccc(S(=O)(=O)n2cccc2[C@@H]2NC(=O)[C@H](Cc3c[nH]c4ccccc34)NC(=O)C[C@@H](c3ccc(Cl)cc3)NC(=O)C/C=C/[C@@H]2C)cc1	pIC50	4.92

(P) Cc1ccc(S(=O)(=O)n2cccc2[C@@H]2NC(=O)[C@H](Cc3c[nH]c4ccccc34)NC(=O)CCCCOC(=O)C/C=C/[C@@H]2C)cc1
(Q) C[C@H]1/C=C/CC(=O)OCCC(Oc2ccc3c(c2)OCO3)C(=O)N[C@@H](Cc2c[nH]c3ccccc23)C(=O)N[C@H]1c1ccccc1 (some centres not stated)
Just curious, which one has the larger pIC50 reading, P or Q ? Identify your pick by its label.
Q

(I) C[C@H]1/C=C/CC(=O)N[C@H](c2ccc(F)cc2)CC(=O)N[C@@H](Cc2c[nH]c3ccccc23)C(=O)N[C@H]1c1ccccc1
(II) Cc1ccc(S(=O)(=O)n2cccc2[C@@H]2NC(=O)[C@H](Cc3c[nH]c4ccccc34)NC(=O)C[C@@H](CCc3ccccc3)NC(=O)C/C=C/[C@@H]2C)cc1
(III) Cc1ccc(S(=O)(=O)n2cccc2[C@@H]2NC(=O)[C@H](Cc3c[nH]c4ccccc34)NC(=O)CCNC(=O)C/C=C/[C@@H]2C)cc1
(IV) Cc1ccc(S(=O)(=O)n2cccc2[C@@H]2NC(=O)[C@H](Cc3c[nH]c4ccccc34)NC(=O)C[C@@H](c3ccc(F)cc3)NC(=O)C/C=C/[C@@H]2C)cc1
Reorder the items by pIC50, least to greatest. Response format: the labels, sorted as the prompt asks.
I, III, IV, II

====

Measured Activity by item
# test-target: DNA repair nuclease/redox regulator APEX1 (Homo sapiens, UniProt P27695)
# Sequence (P27695 whole entry): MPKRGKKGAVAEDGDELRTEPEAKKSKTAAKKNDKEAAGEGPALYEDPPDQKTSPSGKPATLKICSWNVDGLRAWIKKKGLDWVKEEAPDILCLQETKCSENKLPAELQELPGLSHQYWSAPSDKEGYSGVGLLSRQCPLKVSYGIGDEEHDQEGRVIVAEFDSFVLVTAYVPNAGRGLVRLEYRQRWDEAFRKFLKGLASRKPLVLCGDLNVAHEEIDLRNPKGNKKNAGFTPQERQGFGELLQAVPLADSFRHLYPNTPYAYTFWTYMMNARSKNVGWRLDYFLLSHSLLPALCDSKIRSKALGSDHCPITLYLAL
# assay-notes: Inhibition of APE1 in human ST8814 cells assessed as effect on MMS-induced DNA damage by measuring tail DNA level at 100 uM after 1 hr in presence of MMS by comet assay
# Format: cell-based
# Design: scale not given: the % may be the effect or the level left
Write the answer as a number in %, unit excluded.

Use the examples below as a reference point.
record-smiles	unit-spec	Activity
Cc1ccc(S(=O)(=O)n2cccc2[C@@H]2NC(=O)[C@H](Cc3c[nH]c4ccccc34)NC(=O)CCNC(=O)C/C=C/[C@@H]2C)cc1	%	96
C[C@H]1/C=C/CC(=O)N[C@H](c2ccc(C(F)(F)F)cc2)CC(=O)N[C@@H](Cc2c[nH]c3ccccc23)C(=O)N[C@H]1c1ccccc1	%	67
CC(=O)Nc1sc2c(c1-c1nc3ccccc3s1)CCN(C(C)C)C2	%	34

# return recorded Activity for input `Cc1ccc(S(=O)(=O)n2cccc2[C@@H]2NC(=O)[C@H](Cc3c[nH]c4ccccc34)NC(=O)C[C@@H](c3ccc(C(F)(F)F)cc3)NC(=O)C/C=C/[C@@H]2C)cc1`
95

# return recorded Activity for input `Cc1ccc([C@@H]2CC(=O)N[C@@H](Cc3c[nH]c4ccccc34)C(=O)N[C@@H](c3cccn3S(=O)(=O)c3ccc(C)cc3)[C@@H](C)/C=C/CC(=O)N2)cc1`
40

# return recorded Activity for input `Cc1ccc(S(=O)(=O)n2cccc2[C@@H]2NC(=O)[C@H](Cc3c[nH]c4ccccc34)NC(=O)CCCCOC(=O)C/C=C/[C@@H]2C)cc1`
27

# return recorded Activity for input `Cc1ccc(S(=O)(=O)n2cccc2[C@@H]2NC(=O)[C@H](Cc3c[nH]c4ccccc34)NC(=O)C[C@@H](CCc3ccccc3)NC(=O)C/C=C/[C@@H]2C)cc1`
54
